Data provenance: paper PMC12467246

- MEASURED TARGET: human butyrylcholinesterase (hBuChE) (Homo sapiens, UniProt P06276)
- Construct: purchased Sigma B4186
- Sequence (P06276 29-602): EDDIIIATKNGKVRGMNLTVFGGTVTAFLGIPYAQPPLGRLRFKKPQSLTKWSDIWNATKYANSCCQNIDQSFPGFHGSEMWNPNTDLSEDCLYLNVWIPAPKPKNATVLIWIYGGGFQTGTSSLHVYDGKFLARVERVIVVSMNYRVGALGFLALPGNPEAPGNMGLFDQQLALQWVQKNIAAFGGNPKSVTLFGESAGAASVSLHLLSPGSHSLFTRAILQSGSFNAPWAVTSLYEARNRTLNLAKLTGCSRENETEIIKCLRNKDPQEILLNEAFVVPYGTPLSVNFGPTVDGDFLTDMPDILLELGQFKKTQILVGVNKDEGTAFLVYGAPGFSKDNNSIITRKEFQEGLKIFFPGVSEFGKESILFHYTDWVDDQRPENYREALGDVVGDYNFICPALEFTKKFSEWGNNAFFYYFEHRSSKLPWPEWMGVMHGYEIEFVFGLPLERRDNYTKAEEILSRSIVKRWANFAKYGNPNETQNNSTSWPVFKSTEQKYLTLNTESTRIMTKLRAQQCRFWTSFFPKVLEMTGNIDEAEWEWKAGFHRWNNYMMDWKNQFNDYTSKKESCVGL
- ASSAY COMMENT: biochemical
- SETUP CONDITIONS: read-out: Enzyme IC50 hBuChE
QUANTITY MEASURED: pIC50
When answering, recall that pIC50 equals minus log10 of the concentration in mol/L, and write that number alone.

query: Give the reported pIC50 for this molecule. O=C(C=Cc1ccc(O)c(O)c1)OC1C(O)CC(O)(C(=O)O)CC1O (centres unmarked)
result: 3.11

====

- ASSAY COMMENT: Nitric oxide (NO) radical-scavenging assay
- SETUP CONDITIONS: sodium nitroprusside, 2.5 h 25 °C, Griess reagent, 540 nm
What EC50 was measured for each of the following?
Field format: number, assumed µM, no unit text.

query: Return the recorded EC50 value; entry: Cc1c(C)c2c(c(C)c1O)CC[C@@](C)(CCC[C@H](C)CCC[C@H](C)CCCC(C)C)O2 [α-Tocopherol, α-tocopherol, reference compound]
result: 368

query: Supply reported EC50 belonging to this compound: O=c1c(O[C@@H]2O[C@H](CO)[C@@H](O)[C@H](O)[C@H]2O)c(-c2ccc(O)c(O)c2)oc2cc(O)cc(O)c12 [Quercetin 3-β-D-glucoside, quercetin 3-β-D-glucoside]
result: 261

query: # return recorded EC50 for input O=C1O[C@H]([C@@H](O)CO)C(O)=C1O [L-Ascorbic acid, L-ascorbic acid, reference compound]
result: 720
